system: microtubule proteins originated from swine brain (Sus scrofa, UniProt P02550+P02554)
Construct: Microtubule proteins was extracted from swine brain by the Shelansky method; from tissue; host or cells: swine brain
Sequence (P02550 whole entry): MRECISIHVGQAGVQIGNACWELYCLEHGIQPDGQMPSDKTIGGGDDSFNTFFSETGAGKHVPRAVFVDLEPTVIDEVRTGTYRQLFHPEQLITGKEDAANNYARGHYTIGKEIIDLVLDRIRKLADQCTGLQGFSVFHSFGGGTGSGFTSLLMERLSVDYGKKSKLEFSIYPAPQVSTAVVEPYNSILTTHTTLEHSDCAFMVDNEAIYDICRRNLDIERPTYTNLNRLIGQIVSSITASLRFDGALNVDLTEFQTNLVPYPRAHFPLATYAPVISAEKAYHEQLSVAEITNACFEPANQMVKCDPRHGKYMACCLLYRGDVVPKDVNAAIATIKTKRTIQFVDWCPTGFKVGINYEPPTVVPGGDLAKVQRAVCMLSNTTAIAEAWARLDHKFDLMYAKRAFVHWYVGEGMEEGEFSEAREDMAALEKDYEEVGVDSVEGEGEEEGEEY
Sequence (P02554 whole entry): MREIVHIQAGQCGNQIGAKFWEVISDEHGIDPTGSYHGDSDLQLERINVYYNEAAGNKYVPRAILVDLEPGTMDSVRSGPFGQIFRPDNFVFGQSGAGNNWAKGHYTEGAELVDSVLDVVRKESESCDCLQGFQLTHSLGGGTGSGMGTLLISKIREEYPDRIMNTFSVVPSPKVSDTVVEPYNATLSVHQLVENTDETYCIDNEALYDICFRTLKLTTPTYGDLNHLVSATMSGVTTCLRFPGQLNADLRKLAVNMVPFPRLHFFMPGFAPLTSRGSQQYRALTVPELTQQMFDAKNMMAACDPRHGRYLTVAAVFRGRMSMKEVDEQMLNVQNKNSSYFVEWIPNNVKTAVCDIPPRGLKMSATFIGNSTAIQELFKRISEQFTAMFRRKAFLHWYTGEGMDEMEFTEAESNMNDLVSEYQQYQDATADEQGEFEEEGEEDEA
measurement-protocol: Tubulin polymerization inhibitory test (turbidity measurement)
Type: biochemical
measurement-conditions: microtubule proteins 2 mg/ml, GTP 1 mM, 37° C. for 30 min, absorbance at 340 nm; read-out: IC50 (tubulin polymerization inhibition) (converted)
Attribute: IC50
Give the value; after it, write the unit.

In the examples that follow, each entry is paired with its recorded IC50.
> print(dat)
                            molecule.smiles  result.type    value
1  COc1ccc(S(=O)(=O)Nc2ccccc2NC(=O)c2cn(C)nc2C)cc1         IC50  89.9 µM
2  CCc1noc(C)c1C(=O)Nc1ccccc1NS(=O)(=O)c1ccc(OC)cc1         IC50  4.45 µM
3  COc1ccc(S(=O)(=O)Nc2ccccc2NC(=O)c2cnoc2C)cc1         IC50   3.1 µM
4  COc1ccc(S(=O)(=O)Nc2ccccc2NC(=O)c2c(C)noc2C)cc1         IC50  3.49 µM
5  COc1ccc(S(=O)(=O)Nc2ccccc2NC(=O)c2ncoc2C)cc1         IC50  12.1 µM
6  COc1ccc(S(=O)(=O)Nc2ccccc2NC(=O)c2csnc2C)cc1         IC50  3.47 µM
7  COc1ccc(S(=O)(=O)Nc2ccccc2NC(=O)c2cccn2C)cc1         IC50  4.93 µM

Moving on to another compound below.
Data point: `CCc1onc(C)c1C(=O)Nc1ccccc1NS(=O)(=O)c1ccc(OC)cc1` ; IC50 = 3.13 µM

---

system: microtubule proteins originated from swine brain (Sus scrofa, UniProt P02550+P02554)
Construct: Microtubule proteins was extracted from swine brain by the Shelansky method; from tissue; host or cells: swine brain
measurement-protocol: Tubulin polymerization inhibitory test (turbidity measurement)
Format: biochemical
measurement-conditions: microtubule proteins 2 mg/ml, GTP 1 mM, 37° C. for 30 min, absorbance at 340 nm; read-out: IC50 (tubulin polymerization inhibition) (converted)
result-type: IC50 (µM)
Write the value in µM as a bare number.

# example entries with known answers
> print(dat)
                                   molecule  unit.annotation  value
1  COc1ccc(S(=O)(=O)Nc2ccccc2NC(=O)C2CC2)cc1 [Example 23]               µM   3.46
2  COc1ccc(S(=O)(=O)Nc2ccccc2NC(=O)C2CSCN2)cc1.Cl (racemic) [Example 15, HCl Salt]               µM    4.3
3  COc1ccc(S(=O)(=O)Nc2ccccc2NC(=O)c2cn(C)cn2)cc1 [Example 6]               µM    101
4  Cc1ccc(S(=O)(=O)Nc2ccccc2NC(=O)c2cnoc2C)cc1 [Example 7]               µM   13.7

Attention now shifts to the item below.
CCc1noc(CC)c1C(=O)Nc1ccccc1NS(=O)(=O)c1ccc(OC)cc1 [Example 29] yielded IC50 of 9.2

---

system: microtubule proteins originated from swine brain (Sus scrofa, UniProt P02550+P02554)
Construct: Microtubule proteins was extracted from swine brain by the Shelansky method; from tissue; host or cells: swine brain
measurement-protocol: Tubulin polymerization inhibitory test (turbidity measurement)
Assay type: biochemical
measurement-conditions: microtubule proteins 2 mg/ml, GTP 1 mM, 37° C. for 30 min, absorbance at 340 nm; read-out: IC50 (tubulin polymerization inhibition) (converted)
# maps each entry to its IC50
Quick reminder: number only, in µM, skip the unit.

For orientation, consider the following solved cases.
> print(dat)
                            molecule.smiles  value
1  COc1ccc(S(=O)(=O)Nc2ccccc2NC(=O)c2csc(C)n2)cc1   94.2
2  COc1ccc(S(=O)(=O)Nc2ccccc2NC(=O)C2CCCCC2)cc1   4.89
3  COc1ccc(S(=O)(=O)Nc2ccccc2NC(=O)c2c(C)noc2C(C)C)cc1   7.68

Query `Cc1oncc1C(=O)Nc1ccccc1NS(=O)(=O)c1ccc(F)cc1` yields IC50 of 400

Input `Cc1oncc1C(=O)Nc1ccccc1NS(=O)(=O)c1ccccc1` . Output IC50: 644

Measured IC50, `COc1ccc(S(=O)(=O)Nc2ccccc2NC(=O)c2cnoc2C)cc1OC` : 359

// sample `COc1ccc(S(=O)(=O)Nc2ccccc2NC(=O)C2CCC2)cc1` , its IC50 was 3.19

Looking up `CCc1oncc1C(=O)Nc1ccccc1NS(=O)(=O)c1ccc(OC)cc1` , I see its IC50 listed as 4.11

// IC50 lookup, compound = `COc1ccc(S(=O)(=O)Nc2ccccc2NC(=O)C2CCCC2)cc1` , result: 4.14

Reference source: patent US6458960B1
